# System: HEK-293T
# experiment description: Incucyte cell viability with HEK293T; further: unitless GR value; below 1 slowed growth and below 0 cell loss
# Assay type: toxicity, cell-based
# condition description: human, 24 h, 10 µM, compound concentration 10 uM, replicate number 2
Rule: Growth Rate under 0.5 gives no (0), otherwise yes (1).

INSERT INTO measurements (compound, answer_label) VALUES
  ('CN1CCN(C(=O)c2ccc3cc2OCCOCCNc2ccn4ncc-3c4n2)CC1', 'yes (1)');

**Q:** Given the entry `COc1cc(C(C)C)c(Oc2cnc(NC(CO)CO)nc2N)cc1I` , answer whether its Growth Rate meets or surpasses 0.5.
**A:** yes (1)

**Q:** Kindly determine if Growth Rate recorded for `CCc1c(-c2ccc3[nH]ncc3c2)cnc(N)c1-c1ccc(O)cc1` is above or exactly 0.5.
**A:** yes (1)
